Target: PBP1, PBP2 and PBP3 (Neisseria gonorrhoeae)
Sequence (Q5FAB9 22-469): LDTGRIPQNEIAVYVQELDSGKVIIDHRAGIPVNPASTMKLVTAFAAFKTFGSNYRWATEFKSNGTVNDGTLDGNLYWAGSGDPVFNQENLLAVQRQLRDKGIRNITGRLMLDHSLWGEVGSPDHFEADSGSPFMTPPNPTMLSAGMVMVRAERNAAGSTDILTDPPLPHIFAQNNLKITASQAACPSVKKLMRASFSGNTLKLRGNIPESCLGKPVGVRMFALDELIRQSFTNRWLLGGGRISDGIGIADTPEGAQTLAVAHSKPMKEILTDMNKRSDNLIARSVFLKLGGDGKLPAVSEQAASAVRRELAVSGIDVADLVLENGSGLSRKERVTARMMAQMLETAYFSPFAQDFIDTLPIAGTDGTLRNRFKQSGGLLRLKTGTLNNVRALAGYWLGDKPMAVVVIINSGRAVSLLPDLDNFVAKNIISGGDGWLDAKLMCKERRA
Format: binding, Neisseria gonorrhoeae ATCC 49226
Conditions: read-out: min. IC50 (minimum observed IC50 value); strain ATCC 49226
recordedEndpoint: pIC50
Keep it numeric: pIC50 is minus log10 of the concentration in mol/L.

Reference set (3 entries):
1) CC1(C)S[C@@H]2[C@H](NC(=O)Cc3ccccc3)C(=O)N2[C@H]1C(=O)O; 7.52
2) CC1(C)S[C@@H]2[C@H](NC(=O)[C@H](C(=O)O)c3ccsc3)C(=O)N2[C@H]1C(=O)O; 5.79
3) O=C(NC1CCNCC1)[C@@H]1CC[C@@H]2CN1C(=O)N2OS(=O)(=O)O; 5.42

What does the data say about its pIC50? Entry: `NC(=O)[C@@H]1CC[C@@H]2CN1C(=O)N2OS(=O)(=O)O` 4.69

* * *

Molecular target: PBP3 (Neisseria gonorrhoeae, UniProt Q5FAB9)
Conditions: read-out: IC50 PBP3; strain ATCC 49226; membrane preparation, 30 min drug then Bocillin FL
For each record, check the reported IC50: if it is below 4 µM write yes (1), else write no (0).

1) CC1(C)S[C@@H]2[C@H](NC(=O)Cc3ccccc3)C(=O)N2[C@H]1C(=O)O; yes (1)
2) NC(=O)[C@@H]1CC[C@@H]2CN1C(=O)N2OS(=O)(=O)O; no (0)

A record lists `O=C(NC1CCNCC1)[C@@H]1CC[C@@H]2CN1C(=O)N2OS(=O)(=O)O` . Is its IC50 below 4 µM? yes (1)

A record lists `C[C@]1(Cn2ccnn2)[C@H](C(=O)O)N2C(=O)C[C@H]2S1(=O)=O` . Is its IC50 below 4 µM? no (0)

A record lists `CO/N=C(\C(=O)N[C@@H]1C(=O)N2C(C(=O)O)=C(COC(C)=O)CS[C@H]12)c1csc(N)n1` . Is its IC50 below 4 µM? yes (1)

* * *

Molecular target: PBP2 (Neisseria gonorrhoeae, UniProt P08149, A510V/A516G/A574V/F504L/H541N/I556V/I566V/K555Q/P552V)
Construct: endogenous in cells; host or cells: N. gonorrhoeae ATCC 49226, isolated membrane preparation
Test: biochemical
Assay type: binding, Neisseria gonorrhoeae ATCC 49226
Settings: IC50 PBP2, strain ATCC 49226; membrane preparation, 30 min drug then Bocillin FL
Readings of IC50 for the listed molecules
Write it as a number; the unit nM goes unstated.

Reference set (3 entries):
1) C[C@@H](O)[C@H]1C(=O)N2C(C(=O)O)=C(SCCN=CN)C[C@H]12; 568
2) Cn1c(N)c(NC(=O)NCCN)c[n+]1CC1=C(C(=O)O)N2C(=O)[C@@H](NC(=O)/C(=N\OC(C)(C)C(=O)[O-])c3nsc(N)n3)[C@H]2SC1; 405
3) C[C@@H](O)[C@H]1C(=O)N2C(C(=O)O)=C(S[C@@H]3CN[C@H](CNS(N)(=O)=O)C3)[C@H](C)[C@H]12; 190

What does the data say about its IC50? Entry: `CO/N=C(\C(=O)N[C@@H]1C(=O)N2C(C(=O)O)=C(COC(C)=O)CS[C@H]12)c1csc(N)n1` 22

What does the data say about its IC50? Entry: `C[C@]1(Cn2ccnn2)[C@H](C(=O)O)N2C(=O)C[C@H]2S1(=O)=O` 4800

What does the data say about its IC50? Entry: `CC(C)(O/N=C(\C(=O)N[C@@H]1C(=O)N2C(C(=O)[O-])=C(C[n+]3ccccc3)CS[C@H]12)c1csc(N)n1)C(=O)O` 18.3

What does the data say about its IC50? Entry: `CC1(C)[C@H](C(=O)O)N2C(=O)C[C@H]2S1(=O)=O` 25800

What does the data say about its IC50? Entry: `C=CC1=C(C(=O)O)N2C(=O)[C@@H](NC(=O)/C(=N\OCC(=O)O)c3csc(N)n3)[C@H]2SC1` 44.1

What does the data say about its IC50? Entry: `C[C@@H](O)[C@H]1C(=O)N2C(C(=O)O)=C(S[C@@H]3CN[C@H](C(=O)Nc4cccc(C(=O)O)c4)C3)[C@H](C)[C@H]12` 21

What does the data say about its IC50? Entry: `CCO/N=C(\C(=O)N[C@@H]1C(=O)N2C(C(=O)[O-])=C(Sc3nc(-c4cc[n+](C)cc4)cs3)CS[C@H]12)c1nsc(N)n1` 347

What does the data say about its IC50? Entry: `CCN1CCN(C(=O)N[C@@H](C(=O)N[C@@H]2C(=O)N3[C@@H]2SC(C)(C)[C@@H]3C(=O)O)c2ccccc2)C(=O)C1=O` 19.3

What does the data say about its IC50? Entry: `CC1(C)S[C@@H]2[C@H](NC(=O)Cc3ccccc3)C(=O)N2[C@H]1C(=O)O` 778

* * *

Readings of IC50 for the listed compounds
Target: PBP1 (Neisseria gonorrhoeae, UniProt O05131, A375T/F666S)
Construct: endogenous in cells; host or cells: N. gonorrhoeae ATCC 49226, isolated membrane preparation
Test: PBP-binding assay (Bocillin FL) in isolated membrane preparations
Design: species or system Neisseria gonorrhoeae ATCC 49226
Details: IC50 PBP1, strain ATCC 49226; membrane preparation, 30 min drug then Bocillin FL
Text: Bacterial membranes were collected by ultracentrifugation.

Reference set (3 entries):
1) O=C(NC1CCNCC1)[C@@H]1CC[C@@H]2CN1C(=O)N2OS(=O)(=O)O; > 735 µM
2) CO/N=C(\C(=O)N[C@@H]1C(=O)N2C(C(=O)[O-])=C(C[N+]3(C)CCCC3)CS[C@H]12)c1csc(N)n1 [FEP, cefepime]; > 4.16 µM
3) CCO/N=C(\C(=O)N[C@@H]1C(=O)N2C(C(=O)[O-])=C(Sc3nc(-c4cc[n+](C)cc4)cs3)CS[C@H]12)c1nsc(N)n1; > 3.31 µM

So what IC50 did `C[C@@H](O)[C@H]1C(=O)N2C(C(=O)O)=C(S[C@@H]3CN[C@H](C(=O)Nc4cccc(C(=O)O)c4)C3)[C@H](C)[C@H]12` get with PBP1 (Neisseria gonorrhoeae, UniProt O05131, A375T/F666S)? 1.2 µM

So what IC50 did `CC1(C)S[C@@H]2[C@H](NC(=O)Cc3ccccc3)C(=O)N2[C@H]1C(=O)O` get with PBP1 (Neisseria gonorrhoeae, UniProt O05131, A375T/F666S)? > 5.98 µM

So what IC50 did `CC1(C)[C@H](C(=O)O)N2C(=O)C[C@H]2S1(=O)=O` get with PBP1 (Neisseria gonorrhoeae, UniProt O05131, A375T/F666S)? 870 µM

* * *

Readings of IC50 for the listed molecules
Target: PBP1 (Neisseria gonorrhoeae, UniProt O05131)
Construct: endogenous in cells; host or cells: N. gonorrhoeae ATCC 19424, isolated membrane preparation
Test: PBP-binding assay (Bocillin FL) in isolated membrane preparations
Settings: strain ATCC 19424; membrane preparation, 30 min drug then Bocillin FL; read-out: IC50 PBP1 (converted)

1) C[C@]1(Cn2ccnn2)[C@H](C(=O)O)N2C(=O)C[C@H]2S1(=O)=O [TZ, tazobactam]; 63.3 µM
2) CO/N=C(\C(=O)N[C@@H]1C(=O)N2C(C(=O)[O-])=C(C[N+]3(C)CCCC3)CS[C@H]12)c1csc(N)n1 [FEP, cefepime]; > 4.16 µM
3) CC1(C)S[C@@H]2[C@H](NC(=O)C(C(=O)O)c3ccccc3)C(=O)N2[C@H]1C(=O)O (stereo partly shown) [CAR, carbenicillin]; > 5.29 µM

What does the data say about its IC50? Entry: CO/N=C(\C(=O)N[C@@H]1C(=O)N2C(C(=O)O)=C(COC(C)=O)CS[C@H]12)c1csc(N)n1 [CTX, cefotaxime] 4.06 µM

* * *

Test system: N. gonorrhoeae ATCC 19424
Assay: MIC, CLSI broth microdilution
Assay type: cell-based
Settings: Neisseria gonorrhoeae, ATCC19424; strain ATCC 19424; read-out: MIC
recordedEndpoint: MIC (mg/L)
Write it as a number; the unit mg/L goes unstated.

1. CO[C@@]1(NC(=O)Cc2cccs2)C(=O)N2C(C(=O)O)=C(COC(N)=O)CS[C@@H]21; 0.25
2. C[C@@H](O)[C@H]1C(=O)N2C(C(=O)O)=C(SCCN=CN)C[C@H]12; 0.032
3. C[C@@H](O)[C@H]1C(=O)N2C(C(=O)O)=C(S[C@@H]3CN[C@H](C(=O)Nc4cccc(C(=O)O)c4)C3)[C@H](C)[C@H]12; 0.004
4. CC(C)(O/N=C(\C(=O)N[C@@H]1C(=O)N2C(C(=O)[O-])=C(C[n+]3ccccc3)CS[C@H]12)c1csc(N)n1)C(=O)O; 0.016
5. C[C@@H](O)[C@H]1C(=O)N2C(C(=O)O)=C(S[C@@H]3CN[C@H](C(=O)N(C)C)C3)[C@H](C)[C@H]12; 0.008

Turning to the following compound.
What does the data say about its MIC? Entry: `C[C@H]1[C@H](NC(=O)/C(=N\OC(C)(C)C(=O)O)c2csc(N)n2)C(=O)N1S(=O)(=O)O` 0.032
